Measured on: mushroom tyrosinase
Assay details: dopachrome formation at […] nm, monophenolase activity
Condition notes: 0.5 mM L-tyrosine, 20 µg/mL enzyme, 50 mM phosphate pH 6.8, 30°C, air-saturated, proposed suicide substrate
Attribute measured: pIC50
Lab note: report pIC50 as minus log10 of the concentration in molar units, number only.

**Q:** Param readout = pIC50; param system = mushroom tyrosinase; param query = `OC[C@H]1O[C@H](Oc2ccc(O)cc2)[C@H](O)[C@@H](O)[C@@H]1O` ; response: value
**A:** 2.35
